method: In vivo PK studies in CD-1 mice
experimental context: Bladder; single 100 mg/kg IP dose of BAP
property label: Cmax (µM)
Kindly provide the numeric value in µM only, without the unit symbol.

Q: Item under review: CCCCOP(=O)(O)C(C)=O [BAP, butyl acetylphosphonate] . Reported Cmax?
Result: 1840

# credit: paper PMC10986598
